# system: UniProtKB Q32MK0
# Sequence (Q32MK0 whole entry, looked up): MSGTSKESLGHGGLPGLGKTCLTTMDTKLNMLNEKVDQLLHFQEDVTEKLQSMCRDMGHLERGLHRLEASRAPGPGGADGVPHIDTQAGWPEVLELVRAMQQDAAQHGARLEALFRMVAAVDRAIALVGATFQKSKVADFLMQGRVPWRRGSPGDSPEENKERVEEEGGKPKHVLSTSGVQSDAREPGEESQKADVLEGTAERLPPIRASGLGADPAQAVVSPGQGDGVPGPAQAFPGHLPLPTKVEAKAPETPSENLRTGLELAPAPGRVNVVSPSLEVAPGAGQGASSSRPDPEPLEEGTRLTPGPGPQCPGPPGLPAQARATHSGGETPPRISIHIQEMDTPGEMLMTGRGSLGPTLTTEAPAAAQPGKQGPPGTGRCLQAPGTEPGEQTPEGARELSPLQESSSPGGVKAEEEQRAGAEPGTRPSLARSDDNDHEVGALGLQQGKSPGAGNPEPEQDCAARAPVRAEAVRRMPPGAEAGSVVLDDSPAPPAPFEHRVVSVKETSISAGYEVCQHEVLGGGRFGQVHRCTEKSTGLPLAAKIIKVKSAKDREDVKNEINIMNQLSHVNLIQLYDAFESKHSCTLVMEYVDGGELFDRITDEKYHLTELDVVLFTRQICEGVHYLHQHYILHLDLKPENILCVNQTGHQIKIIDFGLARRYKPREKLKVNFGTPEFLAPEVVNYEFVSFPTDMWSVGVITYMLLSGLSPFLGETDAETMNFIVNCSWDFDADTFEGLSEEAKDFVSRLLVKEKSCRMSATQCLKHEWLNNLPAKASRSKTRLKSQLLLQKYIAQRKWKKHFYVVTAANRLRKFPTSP
# assay_text: KINOMEscan competition binding
# conditions: compound 10.0 µM
measured_metric: kinase still bound, per cent of control (%)
Answer format: numeric, % implied, no suffix.

Some molecules with known kinase still bound, per cent of control results, for comparison:
Req: Look up kinase still bound, per cent of control: Cn1cc(C2=C(c3ccc(Cl)cc3Cl)C(=O)NC2=O)c2ccccc21
Resp: 90

Req: Look up kinase still bound, per cent of control: COc1ccc(CNC(=O)Nc2ncc([N+](=O)[O-])s2)cc1
Resp: 52

Req: Look up kinase still bound, per cent of control: Cc1cnc(-c2cnc(NCCNc3ccc(C#N)cn3)nc2-c2ccc(Cl)cc2Cl)[nH]1
Resp: 78

Okay, now this molecule:
Req: Look up kinase still bound, per cent of control: O=C1Nc2cc(Br)ccc2/C1=C1/Nc2ccccc2/C1=N\O
Resp: 0.4

Just for reference, the kinase profiling compilation of Christmann-Franck et al. (2016) is where these values come from.
